assay_explanation: inhibitors of TNFa-induced NFkB p65 translocation, primary screen, imaging, HUVEC, MLSMR starter and 10KST1 sets (AID 438);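 further: compound added about 3h40 before a 20 min TNFalpha stimulation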
condition: HUVEC TNFa-induced p65 nuclear translocation; measured here: nuclei count (cytotoxicity indicator), at 2.08 µM
measured_endpoint: cell count
In your answer, state the number alone without any accompanying words.

// returns reported cell count for input Cc1ccc(F)cc1NC(=O)Cc1nn(C)c(=O)c2ccccc12
247

Which measured cell count value corresponds to CCCC(C)C1C(C#N)=C(N)Oc2cc(C)oc(=O)c21 (centres undefined) ?
396

May I ask what cell count has been recorded for CC(=O)Nc1ccc(Cl)c(C(N)=O)c1 ?
445

Quick one: cell count for COc1ccc(C2NC(c3ccc(OC)c(OC)c3OC)C(C)C(=O)C2C)c(OC)c1OC (centres undefined) ?
663

---

assay_explanation: blockers of RIG-like receptor reporter activation – cell-based, Sendai virus stimulus, luciferase, 10K MLSCN set, TLR/RLR signaling modifier project, primary screen (AID 602276);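 further: firefly luciferase from ISG56 promoter only with Renilla not read in this screen; 0% = Sendai virus plus DMSO and 100% = medium plus DMSO without virus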
condition: HEK293 RL24 IRF3 luciferase reporter, at 10 µM, stronger effect = higher value
Please respond with reported inhibition for every item in the list.
A number alone suffices; assume %.

Look up inhibition for this compound: CCn1nnnc1NCc1cccn1C
16.1

What does the data say about its inhibition? Entry: COC(=O)COc1ccc(S(=O)(=O)NCCC2=CCCCC2)cc1
15.8

Using the record for Cc1cc(C)cc(NC(=O)N2CCC(c3nc4ccccc4o3)CC2)c1 , report its inhibition.
13.6

I have this compound here, O=C(CNS(=O)(=O)c1ccc(Br)s1)N1CCCC1 , and I need its recorded inhibition.
21.1

Entry CCCc1nc2ccccc2c2nc(N)nn12 : reported inhibition = ?
13.7

Which inhibition reading was recorded for the compound O=S(=O)(c1ccc(OCC(O)CN2CCN(c3ccccc3)CC2)cc1)N1CCOCC1 (stereo unspecified) ?
13.5

---

assay_explanation: blockers of RIG-like receptor reporter activation – cell-based, Sendai virus stimulus, luciferase, 10K MLSCN set, TLR/RLR signaling modifier project, primary screen (AID 602276);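 further: firefly luciferase from ISG56 promoter only with Renilla not read in this screen; 0% = Sendai virus plus DMSO and 100% = medium plus DMSO without virus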
condition: HEK293 RL24 IRF3 luciferase reporter, at 10 µM, stronger effect = higher value
For each of the molecules below, state its inhibition.
Response body: numeric value in %, unit text excluded.

I am curious: what inhibition value has been reported for O=C(NCC1COCCO1)C1CCN(S(=O)(=O)c2ccccc2)CC1 (stereo not drawn) ?
12

Which inhibition is reported for this molecule? CC1(C)O[C@@H]2C[C@H]3[C@@H]4CCC5=CC(=O)C=C[C@]5(C)[C@@]4(F)[C@@H](O)C[C@]3(C)[C@]2(C(=O)CO)O1
-3.36

Endpoint output: inhibition of O=C(CP(=O)(c1ccccc1)c1ccccc1)N1CCCCC1 . Value?
18

For the molecule C[N+](C)(C)CCCCCCCCCC[N+](C)(C)C , what inhibition is on record?
-7.67

Consider the molecule shown here: O=C(O)C1CSC2c3ccccc3C(=O)N12 (stereo not drawn) What is its recorded inhibition?
11.2

Returns the measured inhibition for the input molecule. Input: CN1C(=O)CSc2ccc(NC(=O)N3CCN(c4ccccn4)CC3)cc21
-6.76

Reported inhibition for O=C(Cn1cccc1)N1CCN(C(c2ccccc2)c2ccccc2)CC1 : what is it?
13.3

Which inhibition is reported for this molecule? CCn1cc(C(=O)O)c(=O)c2cnc(N3CCNCC3)nc21
4.06

---

assay_explanation: reduction of polyQ htt aggregates in cells – imaging, exon1htt(103Q)mCFP cells, high-content imaging, primary screen (AID 483);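 further: compound exposure lasted 3 days before fixation; percent of the per-plate median nuclei count of sample wells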
condition: exon1htt(103Q)mCFP cell line, aggregate imaging, at 2 µM; measured here: cell count, toxicity
measured_endpoint: nuclei count (%)
Quick reminder: number only, in %, skip the unit.

Return reported nuclei count; argument: CCOC(=O)c1cc(-c2ccc3c(c2)OCO3)nc2onc(C)c12
64.3

# lookup: nuclei count of Cc1ccc(Nc2nc(CSc3nnnn3C)cs2)cc1
79.2

What value of measured nuclei count is listed for CCCOc1ccc(-c2nnn(CC(=O)Nc3cccc(C(=O)OC)c3)n2)cc1 ?
109

nuclei count for COc1cc(OC)c(C(=O)Nc2ccc(N(C)C)cc2)cc1OC ?
94

Need nuclei count of S=c1[nH]nc(COc2ccccc2)n1C1CCCCC1 , thanks.
91.7

Recorded nuclei count for CC1=C(C#N)C(=O)NC(C)(C)C1 , please?
100

What value of nuclei count has been reported for the following molecule? CC(Sc1nnc(-c2cc3ccccc3o2)n1-c1ccccc1)C(=O)O (centres undefined)
105

State the recorded nuclei count for this entry: Cc1cc(NS(=O)(=O)c2ccc(NC(=O)C(C)N3C(=O)c4ccccc4C3=O)cc2)nc(C)n1 (centres undefined)
98.5

Need nuclei count, item O=C(CSc1nc2ccc(Cl)cc2[nH]1)NCc1ccco1
109

Quick check: nuclei count of CCn1cc(/C=C(/C#N)S(=O)(=O)c2ccccc2)cn1 ?
75

Any idea what nuclei count was measured for COc1cc(NS(=O)(=O)c2cccc3nsnc23)c(C(=O)O)cc1OC ?
95.9

Given NC(N)=Nc1nc(CSCC/C(N)=N/S(N)(=O)=O)cs1 , state its recorded nuclei count.
101

Look at this molecule and give its reported nuclei count. COc1cc(C2C(C#N)=C(N)OC3=C2C(=O)CCC3)ccc1OC(=O)N1CCOCC1 (centres undefined)
93.7

Param item = O=C1CC2CS(=O)(=O)CC2N1c1ccc(Oc2ccccc2)cc1 (centres undefined) ; retrieve measured nuclei count.
88.5

---

assay_explanation: TLR3 IRF3 reporter activation blockers – cell-based, poly I:C stimulus, luciferase, 10K MLSCN set, primary screen (AID 602277)
condition: HEK293-TLR3 RL24 IRF3 luciferase reporter, at 10 µM, stronger effect = higher value
measured_endpoint: inhibition (%)
Provide only the numeric value, understood in %.

Requested read-out: inhibition. Entry: O=C(Nc1cccnc1)Nc1ccc2c(c1)OCO2
-53.4

# inhibition lookup, item CCCn1c(=O)c2ccccc2n2c(SCc3cc(=O)n4ccsc4n3)nnc12
12

Which value of inhibition has been reported for CC(=O)[C@@]1(O)CC[C@H]2[C@@H]3C[C@H](C)C4=CC(=O)C=C[C@]4(C)[C@@]3(F)[C@@H](O)C[C@@]21C in the records?
38.7

Quick one: inhibition for CCSc1oc(-c2ccco2)nc1S(=O)(=O)c1ccccc1 ?
-0.253

Param item = Cc1cccc(CN2CCN(C(c3ccccc3)c3ccc(Cl)cc3)CC2)c1 (stereo unspecified) ; retrieve measured inhibition.
30.8

Reported inhibition, molecule CC(C)CCNC(=O)NC(=O)CSc1nnc(-c2ccccc2F)n1N : ____
-3.83

Param item = O=C(OCCCN1C(=O)c2ccccc2C1=O)c1ccco1 ; retrieve measured inhibition.
-11.6

What value of inhibition has been reported for the following molecule? CCC(=O)N(Cc1cc2c(C)ccc(C)c2[nH]c1=O)C1CCCCC1
25.2

What value of inhibition has been recorded for this entry: CCOC(=O)c1ccc(NC(=O)NC(C)C2CCCO2)cc1 (stereo unspecified)
98.6

Suppose we examine the molecule CCOC(=O)N1CCC(N(C(=O)Nc2ccc(Cl)c(Cl)c2)C(C)CC)CC1 (stereo unspecified) ; what inhibition value has been reported?
-18.2

Can you look up the measured inhibition of COc1ccc(CCNC(=O)c2cc(-c3cc(C)c(C)cc3O)n[nH]2)cc1OC for me?
9.05

Can you look up the measured inhibition of CCc1cccc(NS(=O)(=O)c2c(C)n[nH]c2C)c1 for me?
19.7

Please give the measured inhibition for this molecule: COc1cc2nc(C3CCC3)n(NC(=O)C3CCCC(OC)C3)c(=O)c2cc1OC (stereo unspecified)
9.02

Which inhibition reading was recorded for the molecule COc1ccc(Cn2c(=O)[nH]c3cc(C(=O)NCCCN4CCCC4)ccc3c2=O)cc1 ?
-6.33

Entry COc1ccc(C(CNC(=O)CN2C(=O)NC3(CC(C)CC(C)(C)C3)C2=O)N2CCOCC2)cc1 (stereo unspecified) has what inhibition?
-5.07

Recorded inhibition of CCOC(=O)c1c(C)oc2ccc(O)c(CN(C)C)c12 , please.
20

---

target_of_assay: Voltage-gated potassium channel subunit beta-2 (Rattus norvegicus)
assay_explanation: inhibitors of rat Kvbeta2 reductase activity – biochemical, NADPH fluorescence, primary screen (AID 622);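 further: slope of raw intensity against log time taken from 70 to 1610 s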
condition: recombinant KvBeta, 4-cyanobenzaldehyde reduction, at 10 µM, stronger effect = higher value
Assignment: determine reported fluorescence slope for the given compounds.
// no unit string in output, number only

I am curious: what fluorescence slope value has been reported for O=C(Nc1ccc2c(c1)OCO2)C1CCCN1C(=O)Nc1ccccc1F (centres undefined) ?
-0.418

So what's the measured fluorescence slope for this one? c1ccc(Cn2nnnc2C(c2ccccn2)N2CCOCC2)cc1 (centres undefined)
-0.577

What value of fluorescence slope has been recorded for this entry: N#CCSc1nc2c(c(C3CC=CCC3)c1C#N)CCC2 (centres undefined)
-0.552

Any idea what its fluorescence slope is? The compound is CS(=O)(=O)N1CCN(CC2CC3C=CC2C3)CC1 (centres undefined)
-0.199

Query: fluorescence slope; subject: CCn1c(=O)cc(SCC(=O)Nc2cccnc2)c2ccccc21
-0.463

Would you mind telling me what fluorescence slope value was observed for Cc1ccc(F)cc1NC(=O)c1cccc2nccnc12 ?
-0.554

Give its fluorescence slope value. Item: CC(=O)N1CCc2cc(S(=O)(=O)NC(CC(C)C)C(=O)N3CCn4c3nc3ccccc34)ccc21 (centres undefined)
-0.329

Give its fluorescence slope value. Item: O=C(O)c1[nH]nc2c1COc1ccccc1-2
-0.551

May I ask what fluorescence slope has been recorded for COc1ccc(CN(C(=O)c2ccccc2OC)C2CCS(=O)(=O)C2)cc1 (centres undefined) ?
-0.58

Given the compound CCCOc1ccc(-c2nnn(CC(=O)Nc3cccc(C(=O)OC)c3)n2)cc1 , what is its reported fluorescence slope?
-0.503

What does the data say about its fluorescence slope? Entry: O=C(c1ccco1)N1CCN(c2c(-c3ccccc3)c3cc(Cl)ccc3[nH]c2=O)CC1
-0.456

Please look up its fluorescence slope: COCCn1c(SCC(=O)Nc2nnc(C)s2)nnc1-c1ccncc1
-0.172

Dear colleague, I am looking for the recorded fluorescence slope of the following compound: Cn1c(Cc2ccccc2)nnc1SCC(=O)NC1CCCCC1
-0.0696

Consider the compound CC(=O)Nc1nc(C)c(-c2csc(Nc3ccc(O)cc3)n2)s1 and give its measured fluorescence slope.
-0.556

Would you mind telling me what fluorescence slope value was observed for Cc1occc1C(=O)Nc1cccnc1 ?
-0.538

So what's the measured fluorescence slope for this one? O=C1CC(c2ccc(Cl)cc2)n2nc(N3C(=O)c4ccccc4C3=O)nc2N1 (centres undefined)
-0.587

Returns the measured fluorescence slope for the input compound. Input: COc1cccc(OCCOCCN(C)CCO)c1
-0.532

Look at this compound and give its reported fluorescence slope. COc1ccc(Cl)cc1C(=O)n1nc(C)cc1C
-0.355

Which measured fluorescence slope value corresponds to Cc1ccc(NS(=O)(=O)c2cn(C)cn2)cc1 ?
-0.44

Which fluorescence slope value is on record for CCC(=O)NC1(C(F)(F)F)C(=O)NC(C)=C1C#N (centres undefined) ?
-0.445

Item under review: Cc1cccn2cc(-c3ccccc3)nc12 . Reported fluorescence slope?
-0.557

Quick check: fluorescence slope of CCSc1nnc(NC(=O)c2cc(C)oc2C)s1 ?
-0.451

Report fluorescence slope for COc1ccc(-c2[nH]nc3c2C(c2ccccc2OC(=O)N2CCOCC2)C(C#N)=C(N)O3)cc1 (centres undefined) please.
-0.574

Give the measured fluorescence slope of Cc1occc1C(=O)Nc1cccc2ccccc12 .
-0.546

// lookup fluorescence slope for COc1ccc(-c2n[nH]c(C)c2-c2ccc(Cl)cc2)c(O)c1OC
-0.529

Dear colleague, I am looking for the recorded fluorescence slope of the following compound: CCC(c1nnnn1CCOC)N(Cc1ccc(C)cc1)Cc1cc2cc(OC)ccc2[nH]c1=O (centres undefined)
-0.565

Name the reported fluorescence slope value associated with the compound COc1cc(C2C3=C(CC(C)(C)CC3=O)Nc3c2c(=O)[nH]c(=O)n3Cc2ccccc2)ccc1O (centres undefined)
-0.463

Tell me the measured fluorescence slope of CCOC(=O)C1CCN(Cc2ccc(C(=O)OC)cc2)CC1 , please.
-0.595

What measured fluorescence slope goes with CCSc1nnc(NC(=O)c2nn(C(C)C)c(=O)c3ccccc23)s1 ?
-0.408

# fluorescence slope lookup, item COc1ccccc1C1c2c(oc3ccc(Cl)cc3c2=O)C(=O)N1c1cc(C)on1 (centres undefined)
-0.555

Recorded fluorescence slope of COc1ccc(Cn2ccnc2)cc1Br , please.
-0.302

Please look up its fluorescence slope: CCc1ccc(NC(=O)c2cc(-c3ccco3)on2)cc1
-0.44

// returns reported fluorescence slope for input O=C(C1CCN(S(=O)(=O)c2cnc[nH]2)CC1)N1CCN(c2ncccn2)CC1
-0.353

Fill blank: measured fluorescence slope of the compound Cc1nnc(N(Cc2ccco2)C(=O)c2cccc(C#N)c2)s1 is ____.
-0.569

Please look up its fluorescence slope: CCC(Sc1ccc(C(=O)O)cc1)C(=O)O (centres undefined)
-0.566

What does the record list as fluorescence slope for COCc1[nH]nc2c1C(C1C=CCCC1)C(C#N)=C(N)O2 (centres undefined) ?
-0.464

Quick check: fluorescence slope of COc1ccccc1NS(=O)(=O)c1ccc(NC(=O)c2nc3ncccn3n2)cc1 ?
-0.571

Data request, read-out fluorescence slope, for Cc1cc(NC(=O)CSc2ccc3nnc(-c4cccc(F)c4)n3n2)no1
-0.266

I have this compound here, Cc1ccc(-c2nnn(CC(=O)NC3CC4CCC3C4)n2)cc1 (centres undefined) , and I need its recorded fluorescence slope.
-0.563
